- assay.target: Menin/Histone-lysine N-methyltransferase MLL (Homo sapiens)
- Sequence (O00255 whole entry): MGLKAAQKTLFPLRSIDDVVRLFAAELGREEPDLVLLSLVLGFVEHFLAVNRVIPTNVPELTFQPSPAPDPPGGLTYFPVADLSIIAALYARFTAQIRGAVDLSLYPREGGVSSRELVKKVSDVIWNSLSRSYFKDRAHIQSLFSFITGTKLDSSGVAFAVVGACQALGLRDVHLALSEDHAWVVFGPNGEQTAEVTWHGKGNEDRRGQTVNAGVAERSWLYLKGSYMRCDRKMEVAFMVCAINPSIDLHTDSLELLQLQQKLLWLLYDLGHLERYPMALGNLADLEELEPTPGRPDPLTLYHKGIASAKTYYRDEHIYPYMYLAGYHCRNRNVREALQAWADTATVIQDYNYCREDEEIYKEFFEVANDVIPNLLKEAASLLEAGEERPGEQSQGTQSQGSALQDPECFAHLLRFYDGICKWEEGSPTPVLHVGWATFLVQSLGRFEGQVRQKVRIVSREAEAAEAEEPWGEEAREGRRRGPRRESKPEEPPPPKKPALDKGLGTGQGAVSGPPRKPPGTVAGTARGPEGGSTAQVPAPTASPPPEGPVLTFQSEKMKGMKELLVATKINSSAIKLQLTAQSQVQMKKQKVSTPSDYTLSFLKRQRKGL
- Sequence (Q03164 1-2718 partner limits assumed): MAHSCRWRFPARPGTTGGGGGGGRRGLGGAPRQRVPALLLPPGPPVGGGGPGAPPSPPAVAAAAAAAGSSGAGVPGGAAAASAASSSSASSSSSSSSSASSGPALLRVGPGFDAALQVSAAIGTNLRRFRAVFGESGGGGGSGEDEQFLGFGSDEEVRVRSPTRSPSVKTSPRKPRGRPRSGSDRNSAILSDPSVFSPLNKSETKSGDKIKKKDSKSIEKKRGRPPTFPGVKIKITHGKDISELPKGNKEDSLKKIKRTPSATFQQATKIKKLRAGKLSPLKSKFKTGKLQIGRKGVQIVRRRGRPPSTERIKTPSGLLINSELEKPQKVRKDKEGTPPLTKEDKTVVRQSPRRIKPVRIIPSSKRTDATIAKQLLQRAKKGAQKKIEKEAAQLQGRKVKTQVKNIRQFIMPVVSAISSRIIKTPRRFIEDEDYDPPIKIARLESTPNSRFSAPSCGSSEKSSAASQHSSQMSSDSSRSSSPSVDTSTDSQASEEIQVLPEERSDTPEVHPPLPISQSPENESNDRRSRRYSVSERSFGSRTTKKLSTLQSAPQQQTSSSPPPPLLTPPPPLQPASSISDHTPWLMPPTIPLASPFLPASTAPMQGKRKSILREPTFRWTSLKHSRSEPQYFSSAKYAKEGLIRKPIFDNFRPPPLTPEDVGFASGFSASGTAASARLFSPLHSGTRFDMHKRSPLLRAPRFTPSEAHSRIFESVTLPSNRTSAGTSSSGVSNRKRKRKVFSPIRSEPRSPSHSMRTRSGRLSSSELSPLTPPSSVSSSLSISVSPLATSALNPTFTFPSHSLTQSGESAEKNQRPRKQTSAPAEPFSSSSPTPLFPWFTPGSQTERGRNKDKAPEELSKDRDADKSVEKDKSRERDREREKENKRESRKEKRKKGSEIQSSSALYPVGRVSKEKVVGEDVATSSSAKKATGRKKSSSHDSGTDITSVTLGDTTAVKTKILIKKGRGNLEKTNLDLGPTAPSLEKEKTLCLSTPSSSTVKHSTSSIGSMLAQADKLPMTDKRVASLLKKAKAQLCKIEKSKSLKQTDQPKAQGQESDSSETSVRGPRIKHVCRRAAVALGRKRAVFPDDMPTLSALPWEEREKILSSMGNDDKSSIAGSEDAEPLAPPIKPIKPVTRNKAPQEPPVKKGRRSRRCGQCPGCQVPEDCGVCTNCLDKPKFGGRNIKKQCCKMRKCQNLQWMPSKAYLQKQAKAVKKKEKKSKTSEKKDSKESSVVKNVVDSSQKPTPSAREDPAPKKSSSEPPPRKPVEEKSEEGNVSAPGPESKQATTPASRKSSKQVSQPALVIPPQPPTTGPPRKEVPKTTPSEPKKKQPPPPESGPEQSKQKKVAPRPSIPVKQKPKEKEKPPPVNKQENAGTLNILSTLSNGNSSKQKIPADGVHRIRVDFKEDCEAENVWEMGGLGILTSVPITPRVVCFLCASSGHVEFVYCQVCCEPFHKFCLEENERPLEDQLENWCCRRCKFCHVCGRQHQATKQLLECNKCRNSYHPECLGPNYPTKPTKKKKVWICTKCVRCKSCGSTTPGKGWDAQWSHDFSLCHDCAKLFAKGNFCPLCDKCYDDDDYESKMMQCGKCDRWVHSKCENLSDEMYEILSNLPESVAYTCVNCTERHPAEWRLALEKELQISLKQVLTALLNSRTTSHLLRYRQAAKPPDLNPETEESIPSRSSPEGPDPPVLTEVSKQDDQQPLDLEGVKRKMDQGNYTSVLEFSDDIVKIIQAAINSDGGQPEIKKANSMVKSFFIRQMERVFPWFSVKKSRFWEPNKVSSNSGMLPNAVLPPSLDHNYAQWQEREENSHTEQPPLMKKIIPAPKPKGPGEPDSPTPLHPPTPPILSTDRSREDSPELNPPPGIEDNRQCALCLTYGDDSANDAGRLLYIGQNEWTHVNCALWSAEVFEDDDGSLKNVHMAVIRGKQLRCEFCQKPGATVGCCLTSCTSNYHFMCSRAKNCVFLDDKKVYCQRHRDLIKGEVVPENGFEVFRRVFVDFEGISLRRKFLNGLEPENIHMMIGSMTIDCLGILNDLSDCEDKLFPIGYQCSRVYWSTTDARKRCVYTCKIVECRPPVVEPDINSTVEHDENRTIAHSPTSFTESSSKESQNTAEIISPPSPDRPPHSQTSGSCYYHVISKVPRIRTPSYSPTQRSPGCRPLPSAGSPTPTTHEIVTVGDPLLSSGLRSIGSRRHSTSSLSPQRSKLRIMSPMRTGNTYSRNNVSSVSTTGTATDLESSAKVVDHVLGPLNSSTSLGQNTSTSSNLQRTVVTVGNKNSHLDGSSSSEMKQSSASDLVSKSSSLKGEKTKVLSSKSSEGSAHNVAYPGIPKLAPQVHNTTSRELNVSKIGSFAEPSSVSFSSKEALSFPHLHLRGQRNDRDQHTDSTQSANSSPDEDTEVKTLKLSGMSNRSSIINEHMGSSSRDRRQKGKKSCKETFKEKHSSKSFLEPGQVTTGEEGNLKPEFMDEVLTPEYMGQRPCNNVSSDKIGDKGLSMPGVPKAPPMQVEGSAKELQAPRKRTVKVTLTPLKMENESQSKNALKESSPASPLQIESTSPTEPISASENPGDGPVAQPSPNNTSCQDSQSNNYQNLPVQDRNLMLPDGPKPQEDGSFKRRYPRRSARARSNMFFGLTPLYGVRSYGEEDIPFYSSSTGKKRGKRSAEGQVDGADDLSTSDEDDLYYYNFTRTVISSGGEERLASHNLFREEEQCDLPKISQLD
- Sequence (Q03164 2719-3969 partner limits assumed): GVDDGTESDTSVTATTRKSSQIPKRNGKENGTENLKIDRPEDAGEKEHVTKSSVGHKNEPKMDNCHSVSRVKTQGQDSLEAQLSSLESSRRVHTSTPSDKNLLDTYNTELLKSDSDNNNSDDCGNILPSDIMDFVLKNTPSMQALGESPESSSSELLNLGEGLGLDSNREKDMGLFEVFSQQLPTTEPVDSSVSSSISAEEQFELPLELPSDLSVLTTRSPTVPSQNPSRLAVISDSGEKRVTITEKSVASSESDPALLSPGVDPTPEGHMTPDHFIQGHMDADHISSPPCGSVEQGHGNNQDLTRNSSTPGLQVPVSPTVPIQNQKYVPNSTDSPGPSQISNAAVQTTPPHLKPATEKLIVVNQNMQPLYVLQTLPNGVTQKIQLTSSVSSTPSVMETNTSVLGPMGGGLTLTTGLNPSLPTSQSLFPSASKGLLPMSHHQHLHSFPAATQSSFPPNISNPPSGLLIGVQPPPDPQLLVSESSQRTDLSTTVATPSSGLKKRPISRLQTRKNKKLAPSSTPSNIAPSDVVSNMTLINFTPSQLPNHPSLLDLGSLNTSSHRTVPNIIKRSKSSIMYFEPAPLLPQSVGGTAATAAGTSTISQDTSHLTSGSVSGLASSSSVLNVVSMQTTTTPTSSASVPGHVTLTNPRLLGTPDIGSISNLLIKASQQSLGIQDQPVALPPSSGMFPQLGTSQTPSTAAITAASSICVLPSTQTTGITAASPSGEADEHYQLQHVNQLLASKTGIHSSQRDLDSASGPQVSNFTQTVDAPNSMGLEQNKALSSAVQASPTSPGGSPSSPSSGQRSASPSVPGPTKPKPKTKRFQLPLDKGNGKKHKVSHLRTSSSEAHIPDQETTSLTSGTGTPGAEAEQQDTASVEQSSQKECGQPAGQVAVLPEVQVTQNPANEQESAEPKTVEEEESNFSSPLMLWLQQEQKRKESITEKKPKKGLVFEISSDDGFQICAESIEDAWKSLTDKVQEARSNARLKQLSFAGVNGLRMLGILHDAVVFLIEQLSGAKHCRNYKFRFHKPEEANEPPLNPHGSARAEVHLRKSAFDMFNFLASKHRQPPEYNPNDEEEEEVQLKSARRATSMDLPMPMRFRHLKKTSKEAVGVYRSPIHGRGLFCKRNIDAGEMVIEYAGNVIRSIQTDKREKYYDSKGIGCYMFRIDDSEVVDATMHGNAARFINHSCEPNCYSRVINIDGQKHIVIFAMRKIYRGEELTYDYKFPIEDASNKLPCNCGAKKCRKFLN
- measurement.protocol: Inhibition of menin-MLL1 (unknown origin) protein-protein interaction by fluorescence polarization assay
metric: IC50 (nM)
A number alone suffices; assume nM.

Task: Recorded IC50 of "CC(C)[C@H](C1CNC1)N1CC2(CCN(c3ncnc4sc(CC(F)(F)F)cc34)C2)C1" , please.
Result: 21

Task: Which IC50 is reported for this molecule? "O=C([C@@H]1CC2(CC2)CN1)N1CC2(CCN(c3ncnc4sc(CC(F)(F)F)cc34)C2)C1"
Result: 92

Task: For the molecule shown here, "CC(C)[C@@H](C1CNC1)N1CC2(CCN(c3ncnc4sc(CC(F)(F)F)cc34)C2)C1" , give the reported IC50.
Result: 110

Task: Need IC50 of Cn1cc2c(n1)CCCC2N1CC2(CCN(c3ncnc4sc(CC(F)(F)F)cc34)C2)C1 (stereo unspecified) , thanks.
Result: 120

Task: Would you mind telling me what IC50 value was observed for FC(F)(F)Cc1cc2c(N3CCCC4(CCN(Cc5ccccc5)C4)C3)ncnc2s1 (stereo unspecified) ?
Result: 140

Task: Give its IC50 value. Item: "FC(F)(F)Cc1cc2c(N3CCC4(CN(Cc5ccccc5)C4)C3)ncnc2s1"
Result: 56
